TARGET_OR_TEST_SYSTEM: Melanocortin receptor 5 (Mus musculus, UniProt P41149)
Sequence (P41149 whole entry): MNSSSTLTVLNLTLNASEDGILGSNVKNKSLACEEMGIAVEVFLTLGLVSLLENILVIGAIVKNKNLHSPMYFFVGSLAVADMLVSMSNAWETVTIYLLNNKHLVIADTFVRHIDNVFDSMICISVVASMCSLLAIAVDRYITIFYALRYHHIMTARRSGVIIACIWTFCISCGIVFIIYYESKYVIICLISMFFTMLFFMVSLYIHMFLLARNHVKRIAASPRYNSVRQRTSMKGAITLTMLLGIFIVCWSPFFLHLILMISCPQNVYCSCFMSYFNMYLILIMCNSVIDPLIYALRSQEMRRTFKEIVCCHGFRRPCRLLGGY
PROCEDURE_SUMMARY: Agonist activity at mouse MC5R expressed in HEK293 cells assessed as forskolin-stimulated response by beta-galactosidase reporter gene assay
Assay type: functional, cell-based
pEC50: −log10 of the molar value.
QUANTITY_NAME: pEC50

In the examples that follow, each entry is paired with its recorded pEC50.
CCCN1C(=O)C(Cc2ccccc2)NC(=O)c2ccccc21 (stereo not given)	5.49
NC(N)=NCCCC1NC(=O)c2ccc(Cl)cc2N(Cc2ccccc2)C1=O (stereo not given)	4.77

P = O=C1NC(Cc2ccccc2)C(=O)N(Cc2ccc3ccccc3c2)c2cc(Cl)ccc21 (stereo not given)
Q = NCCCCC1NC(=O)c2ccc(Cl)cc2N(Cc2ccccc2)C1=O (stereo not given)
Challenge: Returns: the label, P or Q , whose recorded pEC50 is the lower number. Let me know the label of the one you choose.
Response given: P
